testDescription: Single dose pharmacokinetic study in cynomolgus monkey
Type: in vivo
experimentalSetup: male, cynomolgus monkey, plasma, po, 5 mg/kg, non-human primate, po 5 mg/kg, 24 hr; read-out: Plasma level, Individual animals

{"compound": "Cc1cc(C(=O)O)nc(N2C[C@H]3C[C@@H](c4ccccc4C(F)(F)F)C[C@H]3C2)n1 [BPN-14136]", "concentration at 24 h": "12700 ng/mL"}

* * *

testDescription: Single dose pharmacokinetic study in cynomolgus monkey
Type: in vivo
experimentalSetup: male, cynomolgus monkey, plasma, iv, 1 mg/kg, non-human primate, iv 1.0 mg/kg, 0.25 hr; read-out: Plasma level, Individual animals
readoutKind: concentration at 0.25 hr

{"structureAsSmiles": "Cc1cc(C(=O)O)nc(N2C[C@H]3C[C@@H](c4ccccc4C(F)(F)F)C[C@H]3C2)n1", "measuredValue": "10500 ng/mL"}
